subjectOfTest: pooled human IgG (human IgG1, 2, 3 and 4) (human)
assay: cell-based or functional assay
Class y: Enzyme Activity Endpoint Assay: Fab′2 at least 500 ng/µL. Class n: Enzyme Activity Endpoint Assay: Fab′2 below 500 ng/µL.

>>> assignedcategory("PRT-388 (enzyme) MVTSVWTKGVTPPTNFTYGEDVLHAPYVANQGWYDITKTFNGKDTLLCGAATAGNMLHWWFDQNKEQIENYLKKHPEKQKINFNGEQMFDVKEAIDTKDSQLDSKLFEYFKEKAFPYLSTKHLGVFPDHVIDMFINGYRLSLTNHGPTPVKRGSKDPRGGIFDAVFTRGDQSKLLTNRHDFKEKTLKEISDLIKQELTEGKALGISHTYANVRINHVINLWGADFDAEGNLEAIYVTDSDSNASIGMKKYFVGVNSNGKVAISAKEIEEDNIGAQVLGLFTLSTGQDIWNQTN")
"n"
>>> assignedcategory("PRT-425 (enzyme) MTITSVWTKGVTPPTPEDFRYNNEDVLHAPYVANQGWYDITKTFDGKDNLLCGAATAGNMLHWWFDQNKEEIERYLKKHPEKQKIIFNNQELFDVKAAIDTKDSQTNSKLFNYFRDKAFPGLSARQLGVMPDLVLDMFINGYYLNLGKTQSTDVNRPYQDKDKRGGIFDAVFTRGDQTTLLTARHDLKNKGLNEISDLIKQELTEGKALALSHTYANVRINHVINLWGADFDAEGNLIAIYVTDSDANASIGMKKYFVGVNANGKVAISAKKIEGDNIGAQVLGLFTLSTGQDIWQKLS")
"y"
>>> assignedcategory("PRT-409 (enzyme) MVTSVWTKGVTPPADFTQGEDVFHAPYVANQGWYDITKTFNGKDDLLCGAATAGNMLHWWFDQNKEYIEAYLKKHPEKQKIMFGDQELLDVRKAINTKGSQKNSELFNYFRDKAFPNLSARRLGVMPDLVLDMFINGYYLNVTKTQTTDVNRTYQEKDKRGGIFDAVFTRGVQSKLLTSRHDFKEKGLKEISDLIKQELTEGKALGLSHTYANVRINHVINLWGADFDSDGNLKAIYVTDSDSNASIGMKKYFVGVNSAGKVAISAKEIKEDNIGAQVLGLFTLSTGQDIWNQTN")
"y"
>>> assignedcategory("PRT-411 (enzyme) MVTSVWTKGVTPPADFTQGEDVFHAPYVANQGWYDITKTFNGKDDLLCGAATAGNMLHWWFDQNKEYIEAYLKKHPEKQKIMFGDQELLDVRKAINTKGSQKNSELFNYFRDKAFPNLSARRLGVMPDLVLDMFINGYYLNVTKTQTTDVNRTYQEKDKRGGIFDAVFTRGDQSKLLTSRHDFKEKGLKEISDLIKQELTEGKALGLSHTYANVRINHVINLWGADFDSDGNLKAIYVTDSDSRASIGMKKYFVGVNSAGKVAISAKEIKEDNIGAQVLGLFTLSTGQDIWNQTN")
"y"
>>> assignedcategory("PRT-403 (enzyme) MVTSVWTKGVTPPADFTQGEDVFHAPYVANQGWYDITKTFNGKDDLLCGAATAGNMLHWWFDQNKEYIEAYLKKHPEKQKIMFGDQELLDVRKAINTKGSQKNSELFNYFRDKAFPNLSARRLGVMPDLVLDMFINGYYLNVTKTQTTDVNRTYQEKDKRGGIFDAVFTRGDQSKLLTSRHDFKEKGLKEISDLIKQELTEGKALGLSHTYANVRISHVINLWGADFDSDGNLKAIYVTDSDSNASIGMKKYFVGVNSAGKVAISAKEIKEDNIGAQVLGLFTLSTGQDIWNQTN")
"y"
>>> assignedcategory("PRT-387 (enzyme) MVTSVWTKGVTPPTNFTYGEDVLHAPYVANQGWYDITKTFNGKDDLLCGAATAGNMLHWWFDQNKEQIENYLKKHPEKQKINFNGEQMFDVKEAIDTKDSQLDSKLFEYFKEKAFPYLSTKHLGVFPDHVIDMFINGYRLSLTNHGPTPVKRGSKDPRGGIFDAVFTRGDQSKLLTNRHDFKEKTLKEISDLIKQELTEGKALGISHTYANVRINHVINLWGADFDAEGNLEAIYVTDSDSNASIGMKKYFVGVNSSGKVAISAKEIEEDNIGAQVLGLFTLSTGQDIWNQTN")
"y"

Q) Please check the record PRT-401 (enzyme) MVTSVWTKGVTPPADFTQGEDVFHAPYVANQGWYDITKEFNGKDDLLCGAATAGNMLHWWFDQNKEYIEAYLKKHPEKQKIMFGDQELLDVRKAINTKGSQKNSELFNYFRDKAFPNLSARRLGVMPDLVLDMFINGYYLNVTKTQTTDVNRTYQEKDKRGGIFDAVFTRGDQSKLLTSRHDFKEKGLKEISDLIKQELTEGKALGLSHTYANVRINHVINLWGADFDSDGNLKAIYVTDSDSNASIGMKKYFVGVNSAGKVAISAKEIKEDNIGAQVLGLFTLSTGQDIWNQTN and state if its Enzyme Activity Endpoint Assay: Fab′2 is at or above 500 ng/µL.
A) y

Q) Reported Enzyme Activity Endpoint Assay: Fab′2 at or above 500 ng/µL? PRT-288 (enzyme) MVTSVWTKGVTPPAKFTQGEDVFHAPYDANQGWYDITKEFNGKDDLLCGAATAGNMLHWWFDQNKEKIEAYLKKHPDKQKIMFGDQELLDVRKVINTKGDQTNSELFNYFRDKAFPNLSARRIGVMPDLVLDMFINGYYLNVYKTQTTDVNRTYQEKDRRGGIFDAVFTRGDQSKLLTSRHDFKEKNLKEISDLIKKELTEGKALGLSHTYANVRIGHVINLWGADFDSNGNLKAIYVTDSDSNASIGMKKYGVGVNSAGKVAISAKEIKEDNIGAQVLGLFTLSTGQDSWNQTN
A) n

Just for reference, patent US20250027068A1 is where these values come from.
